Would you kindly list Emax for each of these compounds?
biological target: human MT2 receptor (Homo sapiens); test: Activation of human MT2 receptor in receptor-expressing HEK293 cells (intracellular Ca2+, FLIPR); assay type: cell-based; conditions: HEK293; maximum reaction by ramelteon taken as 100%, solvent only 0%
Sequence (P49286 whole entry): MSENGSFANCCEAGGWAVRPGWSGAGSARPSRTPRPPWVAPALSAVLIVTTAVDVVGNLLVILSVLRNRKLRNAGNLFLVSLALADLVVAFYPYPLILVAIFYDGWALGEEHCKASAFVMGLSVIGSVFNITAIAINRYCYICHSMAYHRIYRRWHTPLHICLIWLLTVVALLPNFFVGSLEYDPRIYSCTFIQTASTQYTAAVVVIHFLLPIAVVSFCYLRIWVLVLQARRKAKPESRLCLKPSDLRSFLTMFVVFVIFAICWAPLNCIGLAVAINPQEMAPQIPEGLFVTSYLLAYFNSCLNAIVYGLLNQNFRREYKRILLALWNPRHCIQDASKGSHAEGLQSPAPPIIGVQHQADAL

Ask: Report value only: Emax, human MT2 receptor (Homo sapiens), CCC(=O)NCC[C@@H]1CCc2ccc3c(c21)CCO3 [Ramelteon, reference compound]
Result: 100%

Ask: Report value only: Emax, human MT2 receptor (Homo sapiens), CNC(=O)c1[nH]c2c(F)cc(OC)cc2c1CCNC(=O)C(F)F
Result: 105%

Ask: Report value only: Emax, human MT2 receptor (Homo sapiens), CNC(=O)NCCc1c(C(=O)NC)[nH]c2ccc(OC)cc12
Result: 119%

---

tested on: isolated urethra; assay: Isolated urethra contractile action; set-up: species or system rat; settings: test compound at 1 μM; contractile response by 10 μM phenylephrine as 100%; SD female rat urethra; read-out: Isolated urethra contraction (%)
Would you kindly list activation at 1 µM for each of these compounds?
# unit: % | format: bare number

Ask: Provide activation at 1 µM value for the following compound: CCC(=O)NCCc1c(C(=O)NC)[nH]c2cc(F)c(OC)cc12 [Ex 36]
Result: 107

Ask: Provide activation at 1 µM value for the following compound: CNC(=O)c1[nH]c2cc(F)c(OC)cc2c1CCNC(C)=O [Ex 17]
Result: 132

Ask: Provide activation at 1 µM value for the following compound: CCCC(=O)NCCc1c(C(=O)NC)[nH]c2ccc(OC)cc12 [Ex 32]
Result: 143

Ask: Provide activation at 1 µM value for the following compound: CCCC(=O)NCCc1c(C(=O)NC)[nH]c2cc(F)c(OC)cc12 [Ex 35]
Result: 171

---

molecular target: human MT1 receptor (Homo sapiens); assay: Activation of human MT1 receptor in receptor-expressing HEK293 cells (intracellular Ca2+, FLIPR); details: HEK293 cells stably expressing human MT1 and Gq/i chimeric G-protein; intracellular Ca2+ by FLIPR
Sequence (P48039 whole entry): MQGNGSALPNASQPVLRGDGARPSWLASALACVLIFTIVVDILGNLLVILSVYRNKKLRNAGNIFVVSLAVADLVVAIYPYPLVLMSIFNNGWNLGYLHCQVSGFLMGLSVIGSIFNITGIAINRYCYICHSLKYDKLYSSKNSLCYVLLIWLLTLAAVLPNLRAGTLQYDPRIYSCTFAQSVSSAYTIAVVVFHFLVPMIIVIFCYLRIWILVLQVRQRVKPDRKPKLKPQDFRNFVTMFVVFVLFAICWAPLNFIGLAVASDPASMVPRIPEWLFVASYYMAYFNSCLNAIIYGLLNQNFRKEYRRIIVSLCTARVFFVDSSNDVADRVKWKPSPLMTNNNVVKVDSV
Would you kindly list EC50 for each of these compounds?
# unit: nM | format: bare number

Ask: Provide EC50 value for the following compound: CCC(=O)NCCc1c(C(=O)NC)[nH]c2cc(F)c(OC)cc12 [Ex 36]
Result: 10

Ask: Provide EC50 value for the following compound: CCC(=O)NCC[C@@H]1CCc2ccc3c(c21)CCO3 [Ramelteon, reference compound]
Result: 0.28

Ask: Provide EC50 value for the following compound: CCCC(=O)NCCc1c(C(=O)NC)[nH]c2ccc(OC)cc12 [Ex 32]
Result: 7.7
